Test: Ivosidenib plasma PK after single and multiple 500 mg QD doses (dose expansion)
Type: in vivo, human
Details: human, plasma, oral, 500 mg, expansion cholangiocarcinoma, cycle 1 day 1, geometric mean (geometric CV%), read-out: AUC0-8hr
measuredProperty: AUC(0-t) (ng·h/mL)

>>> print(df.to_string())
                       smilesrepresentation  measuredproperty  value
0  N#Cc1ccnc(N2C(=O)CC[C@H]2C(=O)N(c2cncc(F)c2)[C@H](C(=O)NC2CC(F)(F)C2)c2ccccc2Cl)c1          AUC(0-t)  19700

###

Experiment: Ivosidenib plasma PK after single and multiple 500 mg QD doses (dose expansion)
Assay type: in vivo, human
Details: human, plasma, oral, 500 mg, expansion chondrosarcoma, cycle 2 day 1, geometric mean (geometric CV%), read-out: AUC0-24hr
measuredProperty: AUC(0-t) (ng·h/mL)

In [3]: df
Out[3]:
                       smilesrepresentation  measuredproperty  value
0  N#Cc1ccnc(N2C(=O)CC[C@H]2C(=O)N(c2cncc(F)c2)[C@H](C(=O)NC2CC(F)(F)C2)c2ccccc2Cl)c1          AUC(0-t)  88700

###

Assay: Ivosidenib plasma PK after a single oral dose (day −3, dose escalation), LC-MS/MS, non-compartmental
Assay type: in vivo
Conditions: human, oral, single dose day −3, range across all tumor types, read-out: median Tmax
measuredProperty: Tmax

>>> print(df.to_string())
                       smilesrepresentation  measuredproperty     value
0  N#Cc1ccnc(N2C(=O)CC[C@H]2C(=O)N(c2cncc(F)c2)[C@H](C(=O)NC2CC(F)(F)C2)c2ccccc2Cl)c1              Tmax  2 to 6 h

###

Test: Ivosidenib plasma PK after multiple oral doses (dose escalation)
Format: in vivo, human
Settings: human, plasma, oral, 800 mg, non-glioma solid tumors, 800 mg QD, cycle 2 day 1; geometric mean
measuredProperty: Cmax (ng/mL)

                                   molecule  value
0  N#Cc1ccnc(N2C(=O)CC[C@H]2C(=O)N(c2cncc(F)c2)[C@H](C(=O)NC2CC(F)(F)C2)c2ccccc2Cl)c1 [ivosidenib]   6050

###

Assay: Ivosidenib plasma PK after multiple oral doses (dose escalation)
Format: in vivo, human
Details: human, plasma, oral, 300 mg, non-glioma solid tumors, 300 mg QD, cycle 2 day 1; geometric mean
measuredProperty: Cmax (ng/mL)

In [3]: df
Out[3]:
                       smilesrepresentation  value
0  N#Cc1ccnc(N2C(=O)CC[C@H]2C(=O)N(c2cncc(F)c2)[C@H](C(=O)NC2CC(F)(F)C2)c2ccccc2Cl)c1   3160

###

Assay: Ivosidenib plasma PK after a single oral dose (day −3, dose escalation), LC-MS/MS, non-compartmental
Format: in vivo
Settings: human, po, 1200 mg, non-glioma solid tumors, single oral 1200 mg, day −3, median (minimum; maximum), read-out: Tmax
measuredProperty: Tmax

>>> df
                       smilesrepresentation  value
0  N#Cc1ccnc(N2C(=O)CC[C@H]2C(=O)N(c2cncc(F)c2)[C@H](C(=O)NC2CC(F)(F)C2)c2ccccc2Cl)c1    6 h

###

Assay: Ivosidenib plasma PK after multiple oral doses (dose escalation)
Assay type: in vivo, human
Conditions: human, plasma, oral, 300 mg, glioma, 300 mg QD, cycle 2 day 1; geometric mean
Procedure: In the dose escalation portion, patients with 1) glioma and 2) non-glioma solid tumors were enrolled into sequential cohorts using a standard 3 + 3 design. […] Plasma ivosidenib was measured using two validated liquid chromatography-tandem mass spectrometry (LC-MS/MS) methods. The lower limit of quantification (LLOQ) was 1.00 ng/mL (low-range assay) or 50.0 ng/mL (high-range assay). […] Plasma 2-HG concentrations were measured using a qualified LC-MS/MS method with an LLOQ of 30.0 ng/mL. […]
measuredProperty: Cmax (ng/mL)

>>> print(df.to_string())
                                   molecule  value
0  N#Cc1ccnc(N2C(=O)CC[C@H]2C(=O)N(c2cncc(F)c2)[C@H](C(=O)NC2CC(F)(F)C2)c2ccccc2Cl)c1 [ivosidenib]   3290

###

Assay: Ivosidenib plasma PK after multiple oral doses (dose escalation)
Format: in vivo, human
Settings: human, plasma, oral, 1200 mg, non-glioma solid tumors, 1,200 mg QD, cycle 2 day 1; geometric mean; read-out: AUC0-tau
measuredProperty: AUC (µg·h/mL)

>>> print(df.to_string())
                       smilesrepresentation  measuredproperty  value
0  N#Cc1ccnc(N2C(=O)CC[C@H]2C(=O)N(c2cncc(F)c2)[C@H](C(=O)NC2CC(F)(F)C2)c2ccccc2Cl)c1               AUC    120

###

Experiment: Ivosidenib plasma PK after multiple oral doses (dose escalation)
Format: in vivo, human
Settings: human, plasma, oral, 900 mg, glioma, 900 mg QD, cycle 2 day 1; geometric mean; read-out: AUC0-tau
measuredProperty: AUC (ng·h/mL)

In [3]: df
Out[3]:
                       smilesrepresentation  measurementunits  value
0  N#Cc1ccnc(N2C(=O)CC[C@H]2C(=O)N(c2cncc(F)c2)[C@H](C(=O)NC2CC(F)(F)C2)c2ccccc2Cl)c1           ng·h/mL  64500

###

Experiment: Ivosidenib plasma PK after single and multiple 500 mg QD doses (dose expansion)
Type: in vivo, human
Conditions: human, plasma, oral, 500 mg, expansion overall, cycle 1 day 1, geometric mean (geometric CV%), read-out: AUC0-8hr
measuredProperty: AUC(0-t)

                       smilesrepresentation          value
0  N#Cc1ccnc(N2C(=O)CC[C@H]2C(=O)N(c2cncc(F)c2)[C@H](C(=O)NC2CC(F)(F)C2)c2ccccc2Cl)c1  17600 ng·h/mL

###

Assay: Ivosidenib plasma PK after multiple oral doses (dose escalation)
Format: in vivo, human
Details: human, plasma, oral, 500 mg, glioma, 500 mg QD, cycle 2 day 1; median; read-out: Tmax
Description: In the dose escalation portion, patients with 1) glioma and 2) non-glioma solid tumors were enrolled into sequential cohorts using a standard 3 + 3 design. […] Plasma ivosidenib was measured using two validated liquid chromatography-tandem mass spectrometry (LC-MS/MS) methods. The lower limit of quantification (LLOQ) was 1.00 ng/mL (low-range assay) or 50.0 ng/mL (high-range assay). […] Plasma 2-HG concentrations were measured using a qualified LC-MS/MS method with an LLOQ of 30.0 ng/mL. […]
measuredProperty: Tmax (h)

In [3]: df
Out[3]:
                                   compound  measurementunits  value
0  N#Cc1ccnc(N2C(=O)CC[C@H]2C(=O)N(c2cncc(F)c2)[C@H](C(=O)NC2CC(F)(F)C2)c2ccccc2Cl)c1 [ivosidenib]                 h      2

###

Test: Ivosidenib plasma PK after multiple oral doses (dose escalation)
Assay type: in vivo, human
Conditions: human, plasma, oral, 900 mg, glioma, 900 mg QD, cycle 2 day 1; median; read-out: Tmax
Experimental: In the dose escalation portion, patients with 1) glioma and 2) non-glioma solid tumors were enrolled into sequential cohorts using a standard 3 + 3 design. […] Plasma ivosidenib was measured using two validated liquid chromatography-tandem mass spectrometry (LC-MS/MS) methods. The lower limit of quantification (LLOQ) was 1.00 ng/mL (low-range assay) or 50.0 ng/mL (high-range assay). […] Plasma 2-HG concentrations were measured using a qualified LC-MS/MS method with an LLOQ of 30.0 ng/mL. […]
measuredProperty: Tmax (h)

In [3]: df
Out[3]:
                       smilesrepresentation  measurementunits  value
0  N#Cc1ccnc(N2C(=O)CC[C@H]2C(=O)N(c2cncc(F)c2)[C@H](C(=O)NC2CC(F)(F)C2)c2ccccc2Cl)c1                 h   2.52

###

Assay: Ivosidenib plasma PK after multiple oral doses (dose escalation)
Format: in vivo, human
Conditions: human, plasma, oral, 500 mg, glioma, 500 mg QD, cycle 2 day 1; geometric mean
measuredProperty: Cmax (ng/mL)

In [3]: df
Out[3]:
                       smilesrepresentation  measurementunits  value
0  N#Cc1ccnc(N2C(=O)CC[C@H]2C(=O)N(c2cncc(F)c2)[C@H](C(=O)NC2CC(F)(F)C2)c2ccccc2Cl)c1             ng/mL   2900

###

Assay: Ivosidenib plasma PK after a single oral dose (day −3, dose escalation), LC-MS/MS, non-compartmental
Assay type: in vivo
Conditions: human, po, 500 mg, glioma, single oral 500 mg, day −3, median (minimum; maximum), read-out: Tmax
Procedure: In the dose escalation portion, patients with 1) glioma and 2) non-glioma solid tumors were enrolled into sequential cohorts using a standard 3 + 3 design. […] Plasma ivosidenib was measured using two validated liquid chromatography-tandem mass spectrometry (LC-MS/MS) methods. The lower limit of quantification (LLOQ) was 1.00 ng/mL (low-range assay) or 50.0 ng/mL (high-range assay). […] Plasma 2-HG concentrations were measured using a qualified LC-MS/MS method with an LLOQ of 30.0 ng/mL. […]
measuredProperty: Tmax (h)

In [3]: df
Out[3]:
                       smilesrepresentation  value
0  N#Cc1ccnc(N2C(=O)CC[C@H]2C(=O)N(c2cncc(F)c2)[C@H](C(=O)NC2CC(F)(F)C2)c2ccccc2Cl)c1   3.54
